# Test system: UACC-62 melanoma
# protocolSummary: NCI tumour cell line growth inhibition, 48 h; in the data active means GI50 below about 0.43 µM; inactive means the rest
Outcome codes: Yes = active, No = inactive

• Nc1nc2ccc([C@@H]3Nc4ccc5[nH]ncc5c4[C@H]4[C@H]5CCC(C5)[C@H]43)cc2s1 = No
• N#C/C(=C/C=C(\Cl)c1ccc(Cl)cc1)C(N)=O = No
• COc1ccc(-c2cnc(-c3ccc(F)cc3)[nH]2)cc1 = No
• COc1ccc(C2NCCc3c2[nH]c2ccccc32)cc1CN1CCN(c2ccc(F)cc2)CC1 (stereo unspecified) = No
• COc1ccc2nc(NCCCNCCO)c3sc4ccc(F)cc4c(=O)c3c2c1 = No
• N#C/C(=C\c1ccc(Br)cc1)n1nnc2cccc(F)c21 = No
• CN1CCN(CC(=O)Nc2ccc3ncnc(Nc4ccc(Oc5cccc(C(F)(F)F)c5)c(Cl)c4)c3c2)CC1 = No
• O=C([O-])c1ccc2c(c1)-c1nc-2nc2[n-]c(nc3nc(nc4[n-]c(n1)c1ccc(C(=O)[O-])cc41)-c1cc(C(=O)[O-])ccc1-3)c1ccc(C(=O)[O-])cc21.[Fe+2] = No
• Cn1ccc(=Nc2ccc(NC(=O)c3ccc(N=c4ccn(C)c5ccc([N+](=O)[O-])cc45)cc3)cc2)cc1 = No
• O=C1c2cccnc2-c2nc(/C=C/c3ccccc3)cc3c2c1nc1ccccc13 = No
• COC(=O)c1c2c(c(C)[n+]([O-])c1C)C(=O)C=C(NCc1cccc(OC)c1)C2=O = Yes
• Cc1ccc(N=C2CSc3nnc(-c4csc5c4CCCC5)n3N2)cc1 = Yes
• N#CC1C(=N)Cc2ccccc2-c2ccccc21 (stereo unspecified) = No
• CCC(C(=O)[O-])C(=O)[O-].CCC(C(=O)[O-])C(=O)[O-].N.N.NCCCCCN.[Pt+4].[Pt+4] = No
• COc1c2ccccc2c(O)c2c(=O)c(C(=O)O)cn(C)c12 = No
• COc1cc2c3c(n(CCCN4CCN(C)CC4)c(=O)c2cc1OC)-c1cc2c(cc1C3=O)OCO2 = No
• CC[N+](CC)=c1ccc2nc3c(cc(NCc4ccccc4)c4ccccc43)oc-2c1 = No
• O=S(=O)(NC(=S)Nc1ccccc1)c1ccc(N2N=C3c4ccccc4CC3C2c2cccs2)cc1 (stereo unspecified) = No
• C/C=C(\C)C(=O)O[C@@H]1C(O)[C@H]2OC(COC(=O)CCC(=O)CCCCCC[C@H](CCCCC)O[C@@H]3OC(C)[C@H](OC(C)=O)C(O)[C@H]3O2)[C@H]1OC(=O)/C=C/c1ccccc1 (stereo partly specified) = Yes
• COc1ccc(/C=C(/C(=O)N2CCCC2)c2cc(OC)c(OC)c(OC)c2)cc1N = No
• Cc1cc2c(cc1O)CC[C@@H]1[C@@H]2CC[C@]2(C)[C@@H](O)CC[C@@H]12 = No
• O=C1/C(=C/c2ccccc2)SC(=Nc2ccccc2)N1Nc1ccccc1 = No
• Cc1cc(O)c2c(c1)C(=O)c1cc(O)cc(O)c1C2=O = No
• COc1ccc2cc(C(=O)/C=C/c3cccc(Cl)c3Cl)ccc2c1 = No
• C=C(CN1CCN(c2cccc(C(F)(F)F)c2)CC1)c1ccc(C(=O)Nc2ccccc2N)cc1 = Yes
• COc1cc(/C=C/C(=O)c2cc(F)c(Cl)cc2Cl)cc(OC)c1OC = No
